Every entry's value here was drawn from patent WO2007023782A1.

biological target: T1, nmAb-KT (neutralizing monoclonal antibody against HM-1 killer toxin); assay: SPR (BIAcore X), nmAb-KT immobilised on CM5 chip, ScFv 15.75-250 nM as analyte, 25 C, HBS-EP
T1 construct: also called nmb-KT; HM-1 neutralizing monoclonal antibody
experimentalEndpoint: koff (s⁻¹)
Report as a plain number; the unit s⁻¹ is understood.

Qu. Tell me measured koff for ScFv-A3 (scFv, Mouse anti-idiotypic single chain Fv, VH-(Gly4Ser)3 linker-VL, with a C-terminal E-Tag; also called ScFv KTIdAb; anti-idiotypic ScFv) scFv: MAQVKLQQSGAELMKPGASVKISCKATGYTFSSYWIEWVKQRPGHGLEWIGEILPGSGSTNYNEKFKGKATFTADTSSNTAYMQLSSLTSEDSAVYYCARYYGNYYAMDYWGQGTTVTVSSGGGGSGGGGSGGGGSDIVLTQSPAIMSASPGEKVTITCSVSSSRSSSNLHWYQQKSETSPKPWIYGTSNLASGVPGRFSGSGSGKLLLSHDQQHEAEDVATYYCFQGSGYPLTFGSGTKLEIKRAAAGAPVPYPDPLEPR please.
Ans. 0.00751
